As shown below, each of these compounds has a reported Flk Kinase % Inhibition (P.110) value.
# Test system: FLK-1 receptor
# Protocol Notes: FLK-1 Assay (cellular/catalytic ELISA, VEGF-stimulated phosphotyrosine)
# Type: cell-based
# Design: concentration or dose not given beside the values

| Smiles | Flk Kinase % Inhibition (P.110) |
| --- | --- |
| O=C1Nc2ccc(S(=O)(=O)N3CCOCC3)cc2C1=Cc1cc(Cl)cc(Cl)c1O | 4.2% |
| COC(=O)c1[nH]c(C)c(C=C2C(=O)Nc3c(Br)cc(Br)c(C)c32)c1C(=O)OC | −3.0% |
| CNS(=O)(=O)c1ccc2c(c1)C(=Cc1ccc([N+](=O)[O-])cc1)C(=O)N2 | 0.0% |
| Cc1ccccc1C=C1C(=O)Nc2ccc(Br)c(C)c21 | 0.1% |
| Cc1c(Br)cc(Br)c2c1C(=Cc1c(O)cc(O)cc1O)C(=O)N2 | 2.1% |
| N#Cc1ccccc1C=C1C(=O)Nc2ccc(S(=O)(=O)N3CCOCC3)cc21 | 34.0% |
| O=C1Nc2c(Br)cc(Br)cc2C1=Cc1ccccc1F | −13.4% |
| Cc1c(Br)cc(Br)c2c1C(=Cc1cccn1C)C(=O)N2 | 0.4% |
| CNS(=O)(=O)c1ccc2c(c1)C(=Cc1cc(Cl)cc(Cl)c1O)C(=O)N2 | 17.4% |
| O=C1Nc2ccc(CCCl)cc2C1=Cc1c(F)cccc1F | 10.9% |
| Cc1cc(C=C2C(=O)Nc3c(Br)cc(Br)c(C)c32)[nH]n1 | 21.6% |
| O=C1Nc2ccc(I)cc2C1=Cc1ccc(Cl)cc1Cl | 9.2% |
| Cc1c(Br)cc(Br)c2c1C(=Cc1ccc(O)c([N+](=O)[O-])c1)C(=O)N2 | 1.8% |
| CC(C)(C)c1ccc(C=C2C(=O)Nc3ccc(CCCl)cc32)cc1 | 10.8% |
| Cc1c(Br)cc(Br)c2c1C(=Cc1ccc(C#N)cc1)C(=O)N2 | −1.4% |
| O=C1Nc2ccc(S(=O)(=O)Nc3ccc(C(F)(F)F)cc3)cc2C1=Cc1ccccc1Cl | 20.5% |
| Cc1c(Br)ccc2c1C(=Cc1cccc(Cl)c1)C(=O)N2 | 6.2% |
| O=C1Nc2ccc(S(=O)(=O)Nc3ccc(C(F)(F)F)cc3)cc2C1=Cc1cccc(Cl)c1 | 20.1% |
| Cc1c(Br)cc(Br)c2c1C(=Cc1c[nH]c3ccccc13)C(=O)N2 | 12.5% |

====

# Tested On: EGFR (Homo sapiens)
# Construct: endogenous in cells; host or cells: A431 cells (lysate, captured with SUMO1 anti-EGFR antibody)
# Sequence (P00533 25-1210): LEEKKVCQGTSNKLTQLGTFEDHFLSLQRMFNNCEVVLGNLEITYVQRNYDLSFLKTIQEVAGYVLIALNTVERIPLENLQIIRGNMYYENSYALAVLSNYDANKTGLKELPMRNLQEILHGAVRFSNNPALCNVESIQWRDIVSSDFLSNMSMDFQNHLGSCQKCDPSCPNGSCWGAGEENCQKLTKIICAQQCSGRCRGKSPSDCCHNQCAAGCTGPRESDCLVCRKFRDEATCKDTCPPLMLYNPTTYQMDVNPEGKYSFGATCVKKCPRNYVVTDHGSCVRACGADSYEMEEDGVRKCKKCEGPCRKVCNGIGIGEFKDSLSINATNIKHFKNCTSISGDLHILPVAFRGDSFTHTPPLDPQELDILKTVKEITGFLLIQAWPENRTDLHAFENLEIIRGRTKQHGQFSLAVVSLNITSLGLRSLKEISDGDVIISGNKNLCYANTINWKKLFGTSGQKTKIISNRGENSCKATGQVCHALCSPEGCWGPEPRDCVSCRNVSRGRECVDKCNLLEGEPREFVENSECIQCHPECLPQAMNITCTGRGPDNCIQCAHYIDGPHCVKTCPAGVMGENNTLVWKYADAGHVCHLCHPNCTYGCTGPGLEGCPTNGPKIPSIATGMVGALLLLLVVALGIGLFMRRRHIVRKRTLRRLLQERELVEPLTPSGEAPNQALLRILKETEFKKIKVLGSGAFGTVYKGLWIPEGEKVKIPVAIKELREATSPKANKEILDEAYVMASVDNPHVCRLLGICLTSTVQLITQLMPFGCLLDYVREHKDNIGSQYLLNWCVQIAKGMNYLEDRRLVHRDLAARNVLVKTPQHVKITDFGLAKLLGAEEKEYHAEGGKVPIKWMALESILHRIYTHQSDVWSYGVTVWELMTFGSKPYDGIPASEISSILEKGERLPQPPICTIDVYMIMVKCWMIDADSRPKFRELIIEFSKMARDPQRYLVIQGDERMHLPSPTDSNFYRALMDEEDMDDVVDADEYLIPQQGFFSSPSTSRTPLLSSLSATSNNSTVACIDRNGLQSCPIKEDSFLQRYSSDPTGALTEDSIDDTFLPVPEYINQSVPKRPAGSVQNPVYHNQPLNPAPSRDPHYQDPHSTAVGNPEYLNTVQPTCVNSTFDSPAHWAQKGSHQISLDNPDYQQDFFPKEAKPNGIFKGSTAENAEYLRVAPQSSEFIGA
# Protocol Notes: Biochemical EGFR Assay
# Set-up: concentration or dose not given beside the values
As shown below, each of these molecules has a reported Biochem EGFR % Inhibition (P.167) value.
Measure: Biochem EGFR % Inhibition (P.167) (%)

| Molecule | Measure | Unit Annotation | Assay Result |
| --- | --- | --- | --- |
| Cc1c(Br)ccc2c1C(=Cc1ccc(-c3ccccc3)cc1)C(=O)N2 [10735/C11] | Biochem EGFR % Inhibition (P.167) | % | −6.4 |
| CNS(=O)(=O)c1ccc2c(c1)C(=Cc1ccccc1Cl)C(=O)N2 [10736/D11] | Biochem EGFR % Inhibition (P.167) | % | 51.7 |
| O=C1Nc2ccc(S(=O)(=O)N3CCOCC3)cc2C1=Cc1ccc(Br)s1 [10734/F11] | Biochem EGFR % Inhibition (P.167) | % | −15.6 |
| Cc1c(Br)cc(Br)c2c1C(=Cc1ccc(F)cc1Cl)C(=O)N2 [10719/H09] | Biochem EGFR % Inhibition (P.167) | % | −33.5 |
| O=C1Nc2ccc(S(=O)(=O)N3CCOCC3)cc2C1=Cc1ccc(O)c(Br)c1 [10734/F09] | Biochem EGFR % Inhibition (P.167) | % | 3.1 |
| N#Cc1ccccc1C=C1C(=O)Nc2ccc(S(=O)(=O)N3CCOCC3)cc21 [10735/F07] | Biochem EGFR % Inhibition (P.167) | % | 28.9 |
| O=C1Nc2ccc(S(=O)(=O)Nc3ccc(C(F)(F)F)cc3)cc2C1=Cc1cccc(Cl)c1 [10736/E06] | Biochem EGFR % Inhibition (P.167) | % | 47.3 |
| Cc1c(Br)ccc2c1C(=Cc1ccccc1F)C(=O)N2 [10736/C08] | Biochem EGFR % Inhibition (P.167) | % | −0.5 |
| O=C1Nc2ccc(I)cc2C1=Cc1ccc(O)c(Br)c1 [10734/B09] | Biochem EGFR % Inhibition (P.167) | % | 34.9 |
| O=C1Nc2ccc(CCCl)cc2C1=Cc1ccccc1C(F)(F)F [10736/G03] | Biochem EGFR % Inhibition (P.167) | % | 23.0 |
| CCc1ccc(C=C2C(=O)Nc3ccc(S(=O)(=O)Nc4ccc(C(F)(F)F)cc4)cc32)cc1 [10736/E09] | Biochem EGFR % Inhibition (P.167) | % | −40.1 |
| Cc1c(Br)ccc2c1C(=Cc1cc(C(F)(F)F)cc(C(F)(F)F)c1)C(=O)N2 [10735/C06] | Biochem EGFR % Inhibition (P.167) | % | 8.5 |
| O=C1Nc2c(Br)cc(Br)cc2C1=Cc1ccccc1F [10736/A08] | Biochem EGFR % Inhibition (P.167) | % | 27.6 |
| COc1ccc(C=C2C(=O)Nc3c(Br)cc(Br)c(C)c32)cc1C(C)(C)C [10732/H05] | Biochem EGFR % Inhibition (P.167) | % | −2.9 |
| O=C1Nc2ccc(S(=O)(=O)Nc3ccc(C(F)(F)F)cc3)cc2C1=Cc1cc(Cl)ccc1O [10734/E04] | Biochem EGFR % Inhibition (P.167) | % | −7.8 |
| O=C1Nc2c(Br)cc(Br)cc2C1=Cc1cc(Br)cc(Br)c1O [10734/A07] | Biochem EGFR % Inhibition (P.167) | % | 15.2 |
| O=C1Nc2ccc(S(=O)(=O)Nc3ccc(C(F)(F)F)cc3)cc2C1=Cc1c(F)cccc1F [10735/E08] | Biochem EGFR % Inhibition (P.167) | % | 10.2 |
| O=C1Nc2ccc(S(=O)(=O)Nc3ccc(C(F)(F)F)cc3)cc2C1=Cc1ccc([N+](=O)[O-])cc1 [10734/E06] | Biochem EGFR % Inhibition (P.167) | % | 6.3 |
| O=C1Nc2ccc(I)cc2C1=Cc1ccc(F)c(F)c1 [10735/B03] | Biochem EGFR % Inhibition (P.167) | % | 42.9 |
| Cc1cc(C=C2C(=O)Nc3c(Br)cc(Br)c(C)c32)oc1C [10730/H11] | Biochem EGFR % Inhibition (P.167) | % | 26.4 |
| O=C1Nc2ccc(S(=O)(=O)Nc3ccc(C(F)(F)F)cc3)cc2C1=Cc1cc(F)cc(F)c1 [10735/E04] | Biochem EGFR % Inhibition (P.167) | % | 14.3 |
| COc1cc(Br)c(O)c(C=C2C(=O)Nc3c(Br)cc(Br)c(C)c32)c1 [10718/H03] | Biochem EGFR % Inhibition (P.167) | % | 33.2 |
| O=C1Nc2ccc(I)cc2C1=Cc1c(F)cccc1F [10735/B08] | Biochem EGFR % Inhibition (P.167) | % | 24.5 |
| Cc1cccc(C=C2C(=O)Nc3ccc(I)cc32)c1 [10736/B04] | Biochem EGFR % Inhibition (P.167) | % | −9.0 |
| Cc1c(Br)cc(Br)c2c1C(=Cc1cc(O)ccc1O)C(=O)N2 [10727/H10] | Biochem EGFR % Inhibition (P.167) | % | 83.6 |
| CNS(=O)(=O)c1ccc2c(c1)C(=Cc1ccccc1C#N)C(=O)N2 [10735/D07] | Biochem EGFR % Inhibition (P.167) | % | −17.6 |
| CCN(CC)c1ccc(C=C2C(=O)Nc3c(Br)cc(Br)c(C)c32)cc1 [10727/H02] | Biochem EGFR % Inhibition (P.167) | % | −37.1 |
| COc1c([N+](=O)[O-])cc(C=C2C(=O)Nc3c(Br)cc(Br)c(C)c32)cc1C(C)(C)C [10733/H03] | Biochem EGFR % Inhibition (P.167) | % | −16.5 |
| O=C1Nc2ccc(S(=O)(=O)N3CCOCC3)cc2C1=Cc1cc(Cl)cc(Cl)c1O [10734/F03] | Biochem EGFR % Inhibition (P.167) | % | 24.8 |
| Cc1ccccc1C=C1C(=O)Nc2c(Br)cc(Br)cc21 [10735/A02] | Biochem EGFR % Inhibition (P.167) | % | 14.3 |
| CCc1cc(CC)c(C=C2C(=O)Nc3c(Br)cc(Br)c(C)c32)[nH]1 [10727/H03] | Biochem EGFR % Inhibition (P.167) | % | 4.5 |
| Cc1ccccc1C=C1C(=O)Nc2ccc(Br)c(C)c21 [10735/C02] | Biochem EGFR % Inhibition (P.167) | % | 1.6 |
| O=C1Nc2ccc(S(=O)(=O)N3CCOCC3)cc2C1=Cc1ccccc1Cl [10736/F11] | Biochem EGFR % Inhibition (P.167) | % | −23.4 |
| CNS(=O)(=O)c1ccc2c(c1)C(=Cc1c(F)cccc1F)C(=O)N2 [10735/D08] | Biochem EGFR % Inhibition (P.167) | % | −1.5 |
| Cc1c(Br)cc(Br)c2c1C(=Cc1cc(Cl)c(O)c(C(C)(C)C)c1)C(=O)N2 [10722/H08] | Biochem EGFR % Inhibition (P.167) | % | −5.7 |
| CCOC(=O)c1c(C)[nH]c(C=C2C(=O)Nc3c(Br)cc(Br)c(C)c32)c1C [10718/H02] | Biochem EGFR % Inhibition (P.167) | % | −22.5 |

// provenance: patent US20020026053A1
